Test system: β-galactosidase in CMV-LacZ C2C12 myotubes
TEST_SUMMARY: CMV-LacZ secondary screen in C2C12 myotubes (β-Gal stabilizing assay)
Assay type: cell-based, mouse
PROTOCOL_CONDITIONS: 5 uM; CMV-LacZ C2C12 myotubes; 96-well format
QUANTITY: CMV-LACZ in Myotubes (β-galactosidase activity relative to DMSO)

{"columns": ["COMPOUND", "OBSERVED_VALUE"],
 "data": [
  ["CCCCS(=O)(=O)N1CCCC(C(=O)NCCc2ccccc2)C1 (stereo not drawn) [MLS001163121-01]", 0.8506],
  ["CCOc1cc(/C=C2\\C(=O)ON=C2c2ccccc2)ccc1OC [MLS001196946-01]", 0.9817],
  ["C[C@H](NS(=O)(=O)c1ccc(Cl)cc1)C(=O)OCC(=O)c1ccc[nH]1 [MLS000761297-01]", 0.9911],
  ["S=c1[nH]nc(Cn2cnc3ccccc32)n1-c1ccccc1 [MLS000707281-01]", 0.8706],
  ["O=C(COC(=O)c1cc2ccccc2oc1=O)Nc1ccc(F)cc1F [MLS000516719-01]", 0.8894],
  ["CS(=O)(=O)N(Cc1ccc(C(=O)NC2CCCC2)cc1)c1ccccc1 [MLS000714175-01]", 0.9319],
  ["COCCN1C=C(C(=O)OC)C(c2ccccc2Cl)C(C(=O)OC)=C1 [MLS000718886-01]", 0.9787],
  ["COCCN(CC(=O)Nc1cccc(C)c1C)C(=O)C1CCN(S(=O)(=O)c2ccccc2)CC1 [MLS002156278-01]", 0.8694],
  ["CSc1ncccc1C(=O)OCC(=O)c1cc(C)n(C)c1C [MLS002245351-01]", 0.8306]
]}

* * *

Test system: β-galactosidase in CMV-LacZ C2C12 myotubes
TEST_SUMMARY: CMV-LacZ secondary screen in C2C12 myotubes (β-Gal stabilizing assay)
Format: cell-based, mouse
PROTOCOL_CONDITIONS: 20 uM; C2C12 CMV-LacZ myotubes; fold relative to DMSO
QUANTITY: CMV-LACZ in Myotubes, signal relative to DMSO

{"columns": ["COMPOUND", "OBSERVED_VALUE"],
 "data": [
  ["CCCCN1CC(=O)N2Cc3[nH]c4ccccc4c3C[C@H]2C1=O", 1.0316],
  ["CCC(CC)C(=O)Nc1c(C(=O)N2CCN(c3ccccc3)CC2)oc2ccccc12", 0.9063],
  ["O=C(O)C(Cc1ccc(O)cc1)N1C(=O)c2ccccc2C1=O (stereo not drawn)", 1.0344],
  ["O=C(O)CC1(c2ccccc2)C(=O)c2ccccc2C1=O", 0.9800],
  ["CC(OC(=O)c1cc(-c2cccnc2)nc2ccccc12)C(=O)Nc1ccc2ccccc2c1 (stereo not drawn)", 1.116],
  ["Cc1ccsc1CN(C)CC(=O)Nc1ccc([N+](=O)[O-])cc1Cl", 1.1768],
  ["CC1CCN(S(=O)(=O)c2ccc(S(=O)(=O)N3CCCC3)cc2)CC1", 1.161],
  ["C/C(=N\\NC(=O)c1cc(C)oc1C)c1ccc2ccccc2c1", 1.0760],
  ["CC(NC(=O)c1ccc(C(C)(C)C)cc1)C(c1cccs1)N1CCOCC1 (stereo not drawn)", 1.1089],
  ["O=C(c1cccs1)N(Cc1ccco1)c1nc(-c2ccc(F)cc2)cs1", 0.808],
  ["O=S(=O)(NC(=NC1CCCCC1)c1ccccc1F)c1ccccc1", 1.0165],
  ["COc1ccc(N=Nc2ccc(N)nc2N)cc1", 1.1000],
  ["CC(C)c1ccc(NC(=O)CN2C(=O)c3ccccc3S2(=O)=O)cc1", 0.9622],
  ["O=c1oc2c(-c3cccc(F)c3)cc(O)cc2s1", 1.4405],
  ["CC1CCCCC1NC(=O)CSc1nnc(COc2ccc(Cl)cc2)o1 (stereo not drawn)", 1.2212],
  ["COc1ccc(S(=O)(=O)Nc2ccc(S(=O)(=O)Nc3nccs3)cc2)cc1", 1.2115],
  ["COc1ccc(NC(=O)c2cccc(N3C(=O)c4ccc(C(=O)Nc5ccc(OC)c(O)c5)cc4C3=O)c2)cc1O", 1.07],
  ["CN(CC(=O)Nc1cccc(F)c1)C(=O)c1ccc(-c2ccc(Cl)cc2)o1", 1.0510]
]}

* * *

# key: entry, value: activation at 38.3 µM
System: α7 integrin (LacZ reporter in α7LacZ+/− myoblasts)
TEST_SUMMARY: qHTS of the LOPAC library and MLSMR (online screen, α7LacZ+/− myoblasts)
PROTOCOL_CONDITIONS: Mus musculus, Myoblast, 48 h, read-out: Activity at 38.30uM [%] **

{"columns": ["COMPOUND", "UNIT_ABBREV", "activation at 38.3 µM"],
 "data": [
  ["O=C(Nc1ccc(S(=O)(=O)Nc2nccs2)cc1)c1ccccc1OC(F)F", "%", 61.8],
  ["CCCS(=O)(=O)N1CCCC(C(=O)c2cccc(Cl)c2)C1 (stereo not drawn)", "%", 102],
  ["COc1ccc(O)c(/C=N/NC(=O)c2cc(O)nc3ccccc23)c1", "%", 46.8],
  ["COc1cc(/C=C/CN2CCN(Cc3ccc(C)o3)C(CCO)C2)ccc1O (stereo not drawn)", "%", 481],
  ["O=Cc1cn(Cc2ccc(F)cc2Cl)c2ccccc12", "%", 139],
  ["COc1ccc(NC(=O)c2cccc(N3C(=O)c4ccc(C(=O)Nc5ccc(OC)c(O)c5)cc4C3=O)c2)cc1O", "%", 95.6],
  ["CCCC(=O)Nc1ccccc1NC(=O)c1ccc(OCC)cc1", "%", 91.2],
  ["Cc1ccc(NP(=O)(Nc2ccc(C)cc2)Nc2ccc(C)cc2)cc1", "%", 102],
  ["CC(C)(CC(=O)O)CC(=O)N1CCCN(c2nccc(C(F)(F)F)n2)CC1", "%", 108]
]}

* * *

Test system: α7 integrin (LacZ reporter in α7LacZ+/− myoblasts)
TEST_SUMMARY: qHTS of the LOPAC library and MLSMR (online screen, α7LacZ+/− myoblasts)
PROTOCOL_CONDITIONS: Mus musculus, Myoblast, 48 h, read-out: Activity at 38.30uM [%] **
QUANTITY: activation at 38.3 µM (%)

{"columns": ["MOLECULE", "UNIT_ABBREV", "OBSERVED_VALUE"],
 "data": [
  ["CCOC(=O)/C(C(=O)c1ccccc1)=C(\\N)NCCO", "%", 66.5],
  ["CCS(=O)(=O)N1CCCC(C(=O)c2ccc(OC)cc2C)C1 (stereo not drawn)", "%", 149],
  ["CC(=O)c1ccc(N(C(=O)CNC(=O)c2ccco2)C(C(=O)NC2CCCC2)c2ccc(C)o2)cc1 (stereo not drawn)", "%", 75.5],
  ["Cc1c(C(=O)N2CCCCC2)c(S(=O)(=O)Nc2cccc(Br)c2)c(C)n1C", "%", 60.5],
  ["COC(=O)C1SCC2C(=O)N(Cc3ccc(F)cc3)CC(=O)N21 (stereo not drawn)", "%", 51.5],
  ["COc1ccc(-c2csc3ncnc(N4CCN(c5ccccc5[N+](=O)[O-])CC4)c23)cc1", "%", 138],
  ["CCOc1ccc(NC(=O)CN2C(=O)NC(CCSC)C2=O)cc1 (stereo not drawn)", "%", 75.1],
  ["O=C(Nc1ccc(Oc2cccnc2)cc1)c1ccccc1Cl", "%", 83.3],
  ["O=C(NC(=S)NCCC1=CCCCC1)c1ccc(Br)o1", "%", 50.2]
]}

* * *

Tested on: β-galactosidase in CMV-LacZ C2C12 myoblasts
TEST_SUMMARY: CMV-LacZ secondary screen in C2C12 myoblasts (β-Gal stabilizing assay)
Type: cell-based, mouse
PROTOCOL_CONDITIONS: 40 uM; CMV-LacZ C2C12 myoblasts
QUANTITY: CMV-LACZ in Myoblasts (β-galactosidase activity relative to DMSO)

{"columns": ["MOLECULE", "OBSERVED_VALUE"],
 "data": [
  ["Cc1ccc(Cn2nnc3c(=O)[nH]c(C4CCCN(C(=O)c5ccco5)C4)nc32)cc1 (stereo not shown) [MLS001217212-01]", 0.9459],
  ["CC(C)(C)Nc1nc(-c2ccc3c(c2)CCN3C(=O)C2CC2)cs1 [MLS001216939-01]", 1.0644],
  ["COc1ccccc1C(=O)OCc1ccc2sc(C)nc2c1 [MLS001006798-01]", 0.8263],
  ["COc1ccc(C(=O)Cn2nnc(-c3ccccc3NC(=O)c3ccco3)n2)cc1 [MLS000072290-01]", 0.2915]
]}

* * *

Test system: α7 integrin (LacZ reporter in α7+/LacZ myotubes)
TEST_SUMMARY: Myotube α7 integrin FDG assay (Burkin assay in myotubes, 96-well)
Type: cell-based, mouse
PROTOCOL_CONDITIONS: 0.5 uM, myotubes
# key: entry, value: Burkin Assay in Myotubes (signal relative to DMSO)
QUANTITY: Burkin Assay in Myotubes (signal relative to DMSO)

{"columns": ["MOLECULE", "EXPERIMENTAL_TARGET", "OBSERVED_VALUE"],
 "data": [
  ["Cc1ccccc1C(=O)Nc1nnc(SC(C)C)s1 [MLS000683174-01]", "α7 integrin (LacZ reporter in α7+/LacZ myotubes)", 1.145],
  ["Cc1cc(NC(=O)CCC(=O)N(Cc2cccnc2)C(C(=O)NC(C)(C)C)c2ccccc2Cl)no1 (stereo not drawn) [MLS001220803-01]", "α7 integrin (LacZ reporter in α7+/LacZ myotubes)", 0.9345],
  ["COc1ccc(-c2csc3ncnc(N4CCN(c5ccccc5[N+](=O)[O-])CC4)c23)cc1 [MLS001149811-01]", "α7 integrin (LacZ reporter in α7+/LacZ myotubes)", 0.957],
  ["N/C(=N\\OC(=O)COc1cc(Cl)c(Cl)cc1Cl)c1ccncc1 [MLS000625140-01]", "α7 integrin (LacZ reporter in α7+/LacZ myotubes)", 0.8484],
  ["CCOCCCN1C(=O)CN(C2CCCCCC2)C(=O)C1c1ccc(OC)cc1 (stereo not drawn) [MLS000046123-01]", "α7 integrin (LacZ reporter in α7+/LacZ myotubes)", 0.9802],
  ["CCOc1cc(/C=C2\\C(=O)ON=C2c2ccccc2)ccc1OC [MLS001196946-01]", "α7 integrin (LacZ reporter in α7+/LacZ myotubes)", 0.9942],
  ["CCc1c(C2(O)CCCCC2)[nH]c2ncccc12 [MLS002402866-01]", "α7 integrin (LacZ reporter in α7+/LacZ myotubes)", 1.09],
  ["O=C(COC(=O)c1cc2ccccc2oc1=O)Nc1ccc(F)cc1F [MLS000516719-01]", "α7 integrin (LacZ reporter in α7+/LacZ myotubes)", 0.8618],
  ["CC(C)N(CCO)C(=O)CCc1nnc(CCCc2ccccc2)o1 [MLS000733703-01]", "α7 integrin (LacZ reporter in α7+/LacZ myotubes)", 1.063]
]}

Each recorded value in this set is attributed to patent US9980943B2.
